Data provenance: ChEMBL document CHEMBL3808334

Listed here: items and their measured growth at 0.1 µM.
assay text: Growth inhibition of human SKOV3 cells assessed as cell growth at 10^-7 M incubated for 48 hrs by sulforhodamine B assay
Format: functional
condition info: SK-OV-3, 48 h, read-out: Activity

The following compounds have reported results that may help.
[
  {
    "structure smiles": "c1ccc(-c2nc(Nc3ccc(-c4nc5ccccc5[nH]4)cc3)nc(N3CCOCC3)n2)cc1",
    "growth at 0.1 µM": "104%"
  },
  {
    "structure smiles": "Fc1ccc(-c2nc(Nc3ccc(-c4nc5ccccc5[nH]4)cc3)nc(N3CCOCC3)n2)cc1",
    "growth at 0.1 µM": "98%"
  },
  {
    "structure smiles": "Clc1ccc(-c2nc(Nc3ccc(-c4nc5ccccc5[nH]4)cc3)nc(N3CCOCC3)n2)cc1",
    "growth at 0.1 µM": "99%"
  }
]

growth at 0.1 µM lookup needed for "c1ccc2[nH]c(-c3ccc(Nc4nc(N5CCCCC5)nc(N5CCOCC5)n4)cc3)nc2c1" , thanks.
101%
